Tested on: Fibroblast
Assay: Multiplex assay against human fibroblast
Format: toxicity, cell-based
Settings: 24 h, 1 µM, compound concentration 1 uM, replicate 2
observed.property: Population Mitochondria Different-Phenotype (%)

| compound | u | meas.value |
| --- | --- | --- |
| CC(Cc1ccc(O)c(O)c1)C(C)Cc1ccc(O)c(O)c1 (configuration not stated) [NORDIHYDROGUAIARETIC ACID] | % | 8 |
| CCOc1ccn(-c2ccc(F)cc2)c(=O)c1C(=O)Nc1ccc(Oc2ccnc(N)c2Cl)c(F)c1 | % | 21 |
| CC(C)[C@H](CO)Nc1nc(Nc2cccc(Cl)c2)c2ncn(C(C)C)c2n1 | % | 23 |
| C=CC(=O)Nc1cc(-n2c(=O)ccc3cnc4ccc(-c5ccc(NS(C)(=O)=O)cc5)cc4c32)ccc1C | % | 15 |
| CN1C(=O)[C@@H](NC(=O)c2cc3ccccc3[nH]2)N=C(c2ccccc2)c2ccccc21 [DEVAZEPIDE] | % | 10 |
| C[C@@H](Oc1cc(-n2cnc3ccc(CN4CCN(C)CC4)cc32)sc1C(N)=O)c1ccccc1C(F)(F)F | % | 35 |
| N#Cc1cccc(C(=O)Nc2cc(-c3ccccc3)nn2-c2ccccc2)c1 | % | 8 |
| Cl.NC[C@@H]1O[C@H](C23CC4CC(CC(C4)C2)C3)Cc2c1ccc(O)c2O | % | 10 |
| Cl.Cn1c2c(c3ccc(Cl)c(Cl)c31)C(C#N)C1(CCNCC1)NC2=O (configuration not stated) | % | 0 |
| CC(/C=C1\SC(=S)N(CCCC(=O)Nc2ccc(C(=O)O)c(O)c2)C1=O)=C\c1ccccc1 | % | 10 |
| CCOC(=O)CCNc1cc(N2CCc3ccccc3CC2)nc(-c2ccccn2)n1 | % | 14 |
| Oc1cccc(-c2nc(N3CCOCC3)c3oc4ncccc4c3n2)c1 | % | 3 |
| CC(C)c1cc(Nc2nc(N3CCC[C@H](N)C3)ncc2C(N)=O)cc(C(C)C)n1 | % | 96 |
| CC[C@@H]1C(=O)N(C)c2cnc(Nc3ccc(C(=O)NC4CCN(C)CC4)cc3OC)nc2N1C1CCCC1 | % | 0 |
| CCCc1cc(C)[nH]c(=O)c1CNC(=O)c1cc(-c2ccc(N3CCN(C(C)C)CC3)nc2)cc2c1cnn2C(C)C | % | 78 |
| Cc1ccc(NC(=O)Nc2cc(C(F)(F)F)ccc2F)cc1Nc1ccc2c(c1)NC(=O)/C2=C\c1ccc[nH]1 | % | 11 |
| N#CCNC(=O)c1ccc(-c2ccnc(Nc3ccc(N4CCOCC4)cc3)n2)cc1 | % | 15 |

Cited source: ChEMBL document CHEMBL4689842
